test system: Wolbachia pipientis; assay: Anti-Wolbachia Cell-Based Screen; type: functional; set-up: scale not given: in the data most compounds retested in dose-response had high values; conditions: 5 µM
In all, about 48,000 compounds went through this assay and about 13,000 (27%) showed an effect of 50% or more. Some of the results follow.
readout-name: Percent Effect (%)
Dear colleague, please return just the value in %, with no unit written.

- Cc1[nH]ccc1C(=O)N1C[C@H]2CC[C@@H]1CN(S(=O)(=O)N(C)C)C2: -3.55
- CCC(C)(C)NC(=O)Cn1nc(C)nc1-c1cccc(C)c1: -9.782
- O=C(NC1CC(=O)N(C2Cc3ccccc3C2)C1)c1ccoc1 (centres undefined): -3.995

# input compound: COCCN(C)CCN1CC2(CCN(C3CCCNC3)CC2)OC1=O (centres undefined) ; wanted: its Percent Effect
-6.573

Sample CN(c1cccnc1N1CCCC1)S(=O)(=O)c1cccs1 — what was its Percent Effect?
3.267

Name the recorded Percent Effect for Cc1cccc(-c2nc(C)nn2CC(=O)N(C)C2CC2)c1 .
-1.032

Sample Cc1nc(NC2CCCC2)cc(C2CCN2C(=O)c2ccccn2)n1 (centres undefined) — what was its Percent Effect?
140.6

Any idea what Percent Effect was measured for Cc1nc2c(c(N3CCC(O)(CN4CCCC4)CC3)n1)CCN(C)CC2 ?
-16.37

Sample COc1cc2c(cc1OC)CN(C(C(=O)O)c1c(C)nn(C)c1C)CC2 (centres undefined) — what was its Percent Effect?
14.43

Can you look up the measured Percent Effect of Cc1cccc(-c2nc(C)nn2CN2CCN(S(C)(=O)=O)CC2)c1 for me?
-9.044

====

system: Wolbachia pipientis; assay: Anti-Wolbachia Cell-Based Screen; format: functional; set-up: scale not given: in the data most compounds retested in dose-response had high values; conditions: 5 µM
Out of some 48,000 compounds screened, about 13,000 (27%) showed an effect of 50% or more. This is one part of the list.
readout-name: Percent Effect (%)
Field: numeric (%). Do not append units.

• CN(Cc1ncnn1C)C(=O)CCCn1ccc2cc(Cl)ccc21 = 8.375
• COc1cccc(OC)c1C(=O)N1CC(=O)N(C2CCC2)CC(O)C1 (configuration not stated) = 125.2
• Cn1cc(C(=O)N2CCCC(c3cc(O)n(C)n3)C2)cn1 (configuration not stated) = 108
• COc1ccc(C2CCCN2C(=O)NCCNc2ncccn2)cc1 (configuration not stated) = -12.53
• CCC1(C(=O)O)CCCN(C(=O)c2ccc(O)c(Cl)c2)C1 (configuration not stated) = -6.141

Form field: reported Percent Effect of CC(C)c1csc(C2CCCN(C(=O)c3ccc(=O)n(C)n3)C2)n1 (configuration not stated)
-15.66

Percent Effect for Cn1ccc(C(=O)N2CCCC(c3cc(O)n(C)n3)C2)n1 (configuration not stated) ?
89.67

====

test system: Wolbachia pipientis; experiment: Anti-Wolbachia Cell-Based Screen; assay type: functional; set-up: scale not given: in the data most compounds retested in dose-response had high values; conditions: 5 µM
Hit rate of the full screen: of about 48,000 compounds, about 13,000 (27%) showed an effect of 50% or more. This is one part of the list.
readout-name: Percent Effect

* COc1cccc(CC2CN(C(=O)c3ccnn3C)CCO2)c1 (stereo not given) | 14.16%

What measured Percent Effect goes with Cc1c[nH]c(C2CCCN(C(=O)CCc3c(C)n[nH]c3C)C2)n1 (stereo not given) ?
139.5%

Fill in: Percent Effect of COc1ccc2c(c1)CC(C1CCOCC1)N(C(=O)c1cnccn1)C2 (stereo not given) is ___
143.6%

Need Percent Effect of Cc1nc(CN2CC[C@H](OCC3CC3)[C@@H]2Cc2cccnc2)cs1.O=C(O)C(F)(F)F.O=C(O)C(F)(F)F , thanks.
110.4%

Endpoint output: Percent Effect of COc1cccc(C2CCN2C(=O)c2cnccn2)c1 (stereo not given) . Value?
-9.896%
